# Target Of Assay: Voltage-dependent T-type calcium channel subunit alpha-1H (Homo sapiens);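 also: channel activity triggered by adding a high calcium stimulation buffer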
# Sequence (O95180 whole entry): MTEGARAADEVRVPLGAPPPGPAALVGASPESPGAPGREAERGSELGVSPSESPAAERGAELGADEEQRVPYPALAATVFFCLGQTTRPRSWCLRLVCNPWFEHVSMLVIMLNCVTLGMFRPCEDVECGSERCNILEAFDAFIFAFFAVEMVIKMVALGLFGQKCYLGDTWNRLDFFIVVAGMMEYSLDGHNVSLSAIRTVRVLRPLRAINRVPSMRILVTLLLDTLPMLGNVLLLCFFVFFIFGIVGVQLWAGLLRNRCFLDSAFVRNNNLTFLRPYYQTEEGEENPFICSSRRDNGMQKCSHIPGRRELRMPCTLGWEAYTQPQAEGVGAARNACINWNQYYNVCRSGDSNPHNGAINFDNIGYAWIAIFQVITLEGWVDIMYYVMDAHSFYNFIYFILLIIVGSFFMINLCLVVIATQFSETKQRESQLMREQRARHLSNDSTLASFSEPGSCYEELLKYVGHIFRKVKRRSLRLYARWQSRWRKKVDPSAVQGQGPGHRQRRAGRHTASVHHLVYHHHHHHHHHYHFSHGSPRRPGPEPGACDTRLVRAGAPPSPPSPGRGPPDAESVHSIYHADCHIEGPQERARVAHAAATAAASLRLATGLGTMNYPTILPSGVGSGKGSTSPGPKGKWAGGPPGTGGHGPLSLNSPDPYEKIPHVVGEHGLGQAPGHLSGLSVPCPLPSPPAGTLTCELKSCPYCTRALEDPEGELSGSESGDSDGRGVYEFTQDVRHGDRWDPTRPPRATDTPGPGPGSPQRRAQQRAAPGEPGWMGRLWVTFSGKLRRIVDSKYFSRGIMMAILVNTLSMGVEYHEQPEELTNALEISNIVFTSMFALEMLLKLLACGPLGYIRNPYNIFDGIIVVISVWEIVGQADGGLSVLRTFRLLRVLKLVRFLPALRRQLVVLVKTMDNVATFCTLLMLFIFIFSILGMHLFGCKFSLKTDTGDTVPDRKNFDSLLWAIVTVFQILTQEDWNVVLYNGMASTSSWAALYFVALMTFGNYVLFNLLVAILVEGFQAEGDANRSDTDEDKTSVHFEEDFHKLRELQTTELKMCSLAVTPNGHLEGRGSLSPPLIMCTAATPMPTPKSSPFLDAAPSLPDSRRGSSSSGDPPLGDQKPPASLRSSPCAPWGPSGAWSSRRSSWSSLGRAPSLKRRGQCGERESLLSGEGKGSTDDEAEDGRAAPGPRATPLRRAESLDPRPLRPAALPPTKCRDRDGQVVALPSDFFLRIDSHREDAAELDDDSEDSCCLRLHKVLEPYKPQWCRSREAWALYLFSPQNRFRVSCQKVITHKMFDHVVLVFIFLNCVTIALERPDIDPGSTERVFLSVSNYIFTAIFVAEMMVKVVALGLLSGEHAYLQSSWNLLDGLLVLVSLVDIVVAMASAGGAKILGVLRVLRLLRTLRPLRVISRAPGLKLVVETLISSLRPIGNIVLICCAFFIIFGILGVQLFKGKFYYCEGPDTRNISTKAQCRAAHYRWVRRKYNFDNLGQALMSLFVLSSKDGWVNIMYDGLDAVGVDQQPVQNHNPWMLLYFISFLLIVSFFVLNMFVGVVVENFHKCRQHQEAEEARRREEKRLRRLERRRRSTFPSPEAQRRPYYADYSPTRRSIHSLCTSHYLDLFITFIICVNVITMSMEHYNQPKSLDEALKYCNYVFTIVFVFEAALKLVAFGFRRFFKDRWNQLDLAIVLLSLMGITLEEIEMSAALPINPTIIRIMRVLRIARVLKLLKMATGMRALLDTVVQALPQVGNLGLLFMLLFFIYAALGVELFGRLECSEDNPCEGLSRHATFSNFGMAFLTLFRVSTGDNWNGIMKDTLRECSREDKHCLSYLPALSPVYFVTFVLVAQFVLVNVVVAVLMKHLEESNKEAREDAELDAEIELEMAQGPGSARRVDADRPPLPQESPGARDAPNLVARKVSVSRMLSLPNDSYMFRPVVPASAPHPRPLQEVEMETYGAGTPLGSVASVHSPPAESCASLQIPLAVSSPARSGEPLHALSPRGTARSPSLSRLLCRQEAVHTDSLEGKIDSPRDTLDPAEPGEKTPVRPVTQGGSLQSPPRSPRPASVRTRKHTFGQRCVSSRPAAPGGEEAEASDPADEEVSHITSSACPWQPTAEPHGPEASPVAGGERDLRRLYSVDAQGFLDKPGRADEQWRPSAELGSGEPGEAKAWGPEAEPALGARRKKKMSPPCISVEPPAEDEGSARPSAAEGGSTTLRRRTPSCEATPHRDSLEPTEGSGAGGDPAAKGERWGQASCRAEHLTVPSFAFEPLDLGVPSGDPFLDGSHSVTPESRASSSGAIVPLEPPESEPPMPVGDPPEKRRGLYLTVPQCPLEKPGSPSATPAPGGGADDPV
# Format: functional
Activity calls are given as the source filed them.
I'd appreciate it if you could supply EC50 values for the items below.

// solved cases for EC50 follow
* COc1ccc(/C=N/NC(=O)Cc2csc(Nc3cccc(C(F)(F)F)c3)n2)cc1C | 4.82 µM (active)
* COc1ccc(C(c2nnnn2Cc2cccs2)N2CCN(c3ccccc3F)CC2)cc1 (stereo unspecified) | 18 µM (active)
* Cc1cccc(-c2noc(CN(C(=O)c3ccc(Br)o3)C(C)C)n2)c1 | 11.1 µM (active)

Return reported EC50 values for all items listed beneath this line.
1. CCCCCCc1cc2cc(-c3nnc(-c4ccccc4)o3)c(=O)oc2cc1O
2. CNC(=O)c1sc(N2N=C3/C(=C/c4ccccc4)CCCC3C2c2ccccc2)nc1C (stereo unspecified)
3. Cc1cc(NC(=O)C(C)Oc2ccc(Cl)cc2Cl)n(-c2ccccc2)n1 (stereo unspecified)

1: 3 µM (active); 2: 9.13 µM (active); 3: 8.91 µM (active)
